molecular target: µ-opioid receptor (MOR), Human-ORPM1 (human, UniProt P35372 1-400); experiment: cell-based or functional assay
Sequence (P35372 whole entry): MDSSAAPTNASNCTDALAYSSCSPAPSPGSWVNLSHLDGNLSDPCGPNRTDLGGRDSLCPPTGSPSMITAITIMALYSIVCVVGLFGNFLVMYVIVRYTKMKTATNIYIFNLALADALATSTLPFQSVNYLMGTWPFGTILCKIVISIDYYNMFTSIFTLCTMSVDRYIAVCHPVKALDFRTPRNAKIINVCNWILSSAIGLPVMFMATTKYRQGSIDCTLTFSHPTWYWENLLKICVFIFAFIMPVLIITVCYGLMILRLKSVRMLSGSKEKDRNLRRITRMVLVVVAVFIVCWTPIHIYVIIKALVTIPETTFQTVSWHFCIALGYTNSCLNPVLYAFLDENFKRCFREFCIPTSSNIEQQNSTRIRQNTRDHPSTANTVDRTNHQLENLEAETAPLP
Square brackets hold non-standard residues; d marks the D form. Dmt = Cc1cc(O)cc(C)c1C[C@H](N)C(=O)O; NMeI = CC[C@H](C)[C@H](NC)C(=O)O; β3hF = N[C@H](CC(=O)O)Cc1ccccc1; NMeNle = CCCC[C@H](NC)C(=O)O; NMeA = CN[C@@H](C)C(=O)O
Each item that follows carries a reported MOR EC50.

Example entries and their recorded answers appear below.
Find the recorded MOR EC50 belonging to H-[Dmt][dE]G[β3hF][NMeA]-OH (SMILES Cc1cc(O)cc(C)c1C[C@H](N)C(=O)N[C@H](CCC(=O)O)C(=O)NCC(=O)N[C@H](CC(=O)N(C)[C@@H](C)C(=O)O)Cc1ccccc1) [H-DMT-(D)Glu-G-bhF-N(Me)-Ala-OH] and report it.
≤ 10 nM

Given H-[Dmt][dD]G[β3hF][NMeI]-OH (SMILES CC[C@H](C)[C@@H](C(=O)O)N(C)C(=O)C[C@H](Cc1ccccc1)NC(=O)CNC(=O)[C@@H](CC(=O)O)NC(=O)[C@@H](N)Cc1c(C)cc(O)cc1C) [H-DMT-(D)Asp-G-bhF-N(Me)-Ile-OH] , state its recorded MOR EC50.
≤ 1 nM

Quick one: MOR EC50 of H-[Dmt][dD]G[β3hF]G-NH2 (SMILES Cc1cc(O)cc(C)c1C[C@H](N)C(=O)N[C@H](CC(=O)O)C(=O)NCC(=O)N[C@H](CC(=O)NCC(N)=O)Cc1ccccc1) [H-DMT-(D)Asp-G-bhF-Gly-NH2] ?
≤ 1 nM

From here, focus on the item given below.
Look up MOR EC50 for this binder: H-[Dmt][dD]G[β3hF][NMeNle]-OH [H-DMT-(D)Asp-G-bhF-N(Me)-Nle-OH]
≤ 1 nM
